molecular target: Aurora-A (Homo sapiens, UniProt O14965); construct: 6 histidine residues, spacer region and rTEV protease cleavage site (pFastBac HTc) (N); assay: In vitro Aurora-A kinase inhibition test
Sequence (O14965 whole entry): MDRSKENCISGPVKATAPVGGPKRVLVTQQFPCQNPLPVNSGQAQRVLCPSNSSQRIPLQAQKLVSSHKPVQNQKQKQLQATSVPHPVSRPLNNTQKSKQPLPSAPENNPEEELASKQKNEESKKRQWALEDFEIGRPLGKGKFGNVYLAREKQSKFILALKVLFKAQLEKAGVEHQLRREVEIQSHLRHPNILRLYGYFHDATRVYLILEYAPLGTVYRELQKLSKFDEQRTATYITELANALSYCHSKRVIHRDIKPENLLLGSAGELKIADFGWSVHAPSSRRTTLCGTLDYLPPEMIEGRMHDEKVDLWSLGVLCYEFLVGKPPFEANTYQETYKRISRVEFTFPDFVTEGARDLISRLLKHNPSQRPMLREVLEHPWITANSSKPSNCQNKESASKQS
property.name: IC50 (nM)
API: value field is a number in nM; no unit string.

Req: Give a short answer stating reported IC50 for COc1cc2c(Nc3ncc(CC(=O)Nc4cccc(F)c4)s3)ncnc2cc1OCCCN1CCC[C@@H]1COP(=O)(O)O .
Resp: 10.2

* * *

target: Aurora-B (Homo sapiens); construct: 6-histidine; test: In vitro Aurora-B kinase inhibition test; settings: recombinant Aurora-B, [γ33P]ATP, peptide substrate, 60 minutes at room temperature; read-out: concentration giving 50% inhibition of enzyme activity
Sequence (Q96GD4 whole entry): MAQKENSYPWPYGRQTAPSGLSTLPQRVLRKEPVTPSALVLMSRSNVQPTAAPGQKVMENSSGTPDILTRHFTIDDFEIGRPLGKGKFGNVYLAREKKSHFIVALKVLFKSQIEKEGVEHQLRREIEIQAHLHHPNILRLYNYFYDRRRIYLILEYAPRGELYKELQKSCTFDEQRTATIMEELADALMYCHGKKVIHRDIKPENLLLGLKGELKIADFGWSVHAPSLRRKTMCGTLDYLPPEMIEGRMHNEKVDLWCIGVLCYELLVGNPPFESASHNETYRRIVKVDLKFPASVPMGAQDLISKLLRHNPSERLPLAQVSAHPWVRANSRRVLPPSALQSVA
property.name: pIC50
Lab note: report pIC50 as minus log10 of the concentration in molar units, number only.

Req: Give a short answer stating reported pIC50 for COc1cc2c(Nc3ncc(CC(=O)Nc4cccc(F)c4)s3)ncnc2cc1OCCCN1CCC[C@@H]1COP(=O)(O)O .
Resp: 8.05

Each recorded value in this set is attributed to patent US7407946B2.
